System: HeLa MKYP cells
Experiment: Cell death measured by DAPI staining, with 1 μM FCCP/oligomycin or no toxin (no FO)
Type: cell-based
Conditions: with 1 μM FO
METRIC_NAME: Max % death with 1 μM FO (%)
Numbers only here, please. The scale is %.

See these solved cases before continuing.
c1ccc2c(c1)CC[C@@H](N1CCOCC1)[C@@H]2Nc1ncnc2[nH]c(C3CC3)cc12 (single isomer, unassigned)    7.9
COC[C@H]1CCN([C@H]2COc3ccccc3[C@@H]2Nc2ncnc3[nH]c(C4CC4)cc23)C1 [EP-0041546]    6.6

## Task Return reported Max % death with 1 μM FO; argument: `C[C@H]1CN([C@H]2COc3ccccc3[C@@H]2Nc2ncnc3[nH]c(C4CC4)cc23)CCO1`
## Result 12.1

## Task Return reported Max % death with 1 μM FO; argument: Fc1cccc2c1CC[C@H](N1C[C@H]3COC[C@H]3C1)[C@H]2Nc1ncnc2[nH]c(C3CC3)cc12 (single isomer, unassigned)
## Result 21.2

## Task Return reported Max % death with 1 μM FO; argument: [2H]C([2H])([2H])OC1CN([C@H]2COc3ccccc3[C@@H]2Nc2ncnc3[nH]c(C(F)(F)F)cc23)C1 (single isomer, unassigned) [EP-0041248]
## Result 10.5
